# measured.on: human PTH1 receptor (Homo sapiens)
# Sequence (Q03431 27-593): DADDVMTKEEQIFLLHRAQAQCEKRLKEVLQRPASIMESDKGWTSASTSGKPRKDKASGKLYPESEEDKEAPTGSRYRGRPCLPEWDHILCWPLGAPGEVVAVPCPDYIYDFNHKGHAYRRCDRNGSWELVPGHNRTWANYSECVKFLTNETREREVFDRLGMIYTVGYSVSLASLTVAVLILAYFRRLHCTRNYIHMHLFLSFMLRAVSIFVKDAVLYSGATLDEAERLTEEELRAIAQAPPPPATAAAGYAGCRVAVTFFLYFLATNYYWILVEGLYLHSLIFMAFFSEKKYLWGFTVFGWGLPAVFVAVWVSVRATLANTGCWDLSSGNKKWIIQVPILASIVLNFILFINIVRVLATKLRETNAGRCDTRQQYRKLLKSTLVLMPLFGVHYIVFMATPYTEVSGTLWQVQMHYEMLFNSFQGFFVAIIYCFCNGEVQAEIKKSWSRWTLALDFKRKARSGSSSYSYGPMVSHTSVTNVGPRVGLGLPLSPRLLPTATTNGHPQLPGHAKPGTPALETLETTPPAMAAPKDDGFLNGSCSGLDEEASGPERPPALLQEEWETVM
# test.name: In vitro cAMP signal activity in HKRK-B7 cells (LLC-PK1 cells overexpressing the human PTH1 receptor)
# Assay type: cell-based
# condition.set: HKRK-B7 cells; compound at 1×10^−3 M; cAMP produced as percentage of that produced by hPTH(1-34) at 100 nM
Please enter Met where cAMP production activity (%) is greater than or equal to 60%, and Not met where it is lower.

- compound: "Cc1cc(N2C(=O)CNC2=O)ccc1CCS(=O)(=O)N1CCC2(CC1)N=C(C1CCC(C(F)(F)F)CC1)NC2=O (centres unmarked) [Compound 947]"
  measured.on: "human PTH1 receptor (Homo sapiens)"
  class: "Met"
- compound: "NCc1ccc(/C=C/S(=O)(=O)N2CCC3(CC2)N=C(C2CCCCC2)NC3=O)cc1 [Compound 687]"
  measured.on: "human PTH1 receptor (Homo sapiens)"
  class: "Not met"
- compound: "Cc1cc(N2C(=O)CC[C@H]2CO)ccc1/C=C/S(=O)(=O)N1CCC2(CC1)N=C(c1ccc(F)c(C(F)(F)F)c1)NC2=O [Compound 621]"
  measured.on: "human PTH1 receptor (Homo sapiens)"
  class: "Met"
- compound: "Cc1cc(N(C)C(N)=O)cc(C)c1CCS(=O)(=O)N1CC2(C1)N=C(c1cccc(OC(F)(F)F)c1)NC2=O [Compound 941]"
  measured.on: "human PTH1 receptor (Homo sapiens)"
  class: "Not met"
- compound: "Cc1cc(S(=O)(=O)NCC(=O)N(C)C)ccc1/C=C/S(=O)(=O)N1CCC2(CC1)N=C(c1cccc(C(F)(F)F)c1)NC2=O [Compound 590]"
  measured.on: "human PTH1 receptor (Homo sapiens)"
  class: "Met"
- compound: "Cc1cc(NC[C@H](O)CO)ccc1CCS(=O)(=O)N1CCC2(CC1)N=C(c1ccc(OC(F)(F)F)cc1)NC2=O [Compound 156]"
  measured.on: "human PTH1 receptor (Homo sapiens)"
  class: "Met"
- compound: "Cc1c(CCS(=O)(=O)N2CCC3(CC2)N=C(c2cccc(OC(F)(F)F)c2)NC3=O)cccc1OCCC(O)CO (centres unmarked) [Compound 266]"
  measured.on: "human PTH1 receptor (Homo sapiens)"
  class: "Met"
- compound: "Cc1cc(N(C)C(N)=O)cc(C)c1/C=C/S(=O)(=O)N1CCC2(CC1)N=C(CCCCCCCS(C)(=O)=O)NC2=O [Compound 1319]"
  measured.on: "human PTH1 receptor (Homo sapiens)"
  class: "Not met"
- compound: "O=C1NC(C2CCCCC2)=NC12CCN(S(=O)(=O)/C=C/c1cccc3[nH]ccc13)CC2 [Compound 182]"
  measured.on: "human PTH1 receptor (Homo sapiens)"
  class: "Not met"
- compound: "Cc1cc(N(C)C(N)=O)cc(C)c1/C=C\\S(=O)(=O)N1CCC2(CC1)N=C(CCCCCCCCCF)NC2=O [Compound 1326]"
  measured.on: "human PTH1 receptor (Homo sapiens)"
  class: "Met"
- compound: "Cn1ccc2cccc(CCS(=O)(=O)N3CCC4(CC3)N=C(c3cccc(OC(F)(F)F)c3)NC4=O)c21 [Compound 308]"
  measured.on: "human PTH1 receptor (Homo sapiens)"
  class: "Met"
- compound: "CS(=O)(=O)c1cccc(C2=NC3(CCN(S(=O)(=O)c4cccc(Cl)c4)CC3)C(=O)N2)c1 [Compound 32]"
  measured.on: "human PTH1 receptor (Homo sapiens)"
  class: "Not met"
- compound: "O=C1NC(c2ccc(Cl)cc2Cl)=NC12CCN(S(=O)(=O)c1cccc3cccnc13)CC2 [Compound 48]"
  measured.on: "human PTH1 receptor (Homo sapiens)"
  class: "Not met"
- compound: "CC(=O)N(C)c1ccc(/C=C/CS(=O)(=O)N2CCC3(CC2)N=C(C2CCC(C)CC2)NC3=O)c(C)c1 (centres unmarked) [Compound 744]"
  measured.on: "human PTH1 receptor (Homo sapiens)"
  class: "Not met"
- compound: "Cc1cc(C(=O)N2CCC(C)(O)CC2)cc(C)c1/C=C/S(=O)(=O)N1CCC2(CC1)N=C(c1ccc(Cl)c(OCC(F)(F)C(F)F)c1)NC2=O [Compound 1229]"
  measured.on: "human PTH1 receptor (Homo sapiens)"
  class: "Not met"
- compound: "Cc1cc(NCC(N)=O)ccc1CCS(=O)(=O)N1CCC2(CC1)N=C(c1cccc(OC(F)(F)F)c1)NC2=O [Compound 847]"
  measured.on: "human PTH1 receptor (Homo sapiens)"
  class: "Met"

Origin of measurements: patent US9169254B2
